target.of.assay: PI3K γ (Homo sapiens (Human), UniProt P48736)
Sequence (P48736 whole entry): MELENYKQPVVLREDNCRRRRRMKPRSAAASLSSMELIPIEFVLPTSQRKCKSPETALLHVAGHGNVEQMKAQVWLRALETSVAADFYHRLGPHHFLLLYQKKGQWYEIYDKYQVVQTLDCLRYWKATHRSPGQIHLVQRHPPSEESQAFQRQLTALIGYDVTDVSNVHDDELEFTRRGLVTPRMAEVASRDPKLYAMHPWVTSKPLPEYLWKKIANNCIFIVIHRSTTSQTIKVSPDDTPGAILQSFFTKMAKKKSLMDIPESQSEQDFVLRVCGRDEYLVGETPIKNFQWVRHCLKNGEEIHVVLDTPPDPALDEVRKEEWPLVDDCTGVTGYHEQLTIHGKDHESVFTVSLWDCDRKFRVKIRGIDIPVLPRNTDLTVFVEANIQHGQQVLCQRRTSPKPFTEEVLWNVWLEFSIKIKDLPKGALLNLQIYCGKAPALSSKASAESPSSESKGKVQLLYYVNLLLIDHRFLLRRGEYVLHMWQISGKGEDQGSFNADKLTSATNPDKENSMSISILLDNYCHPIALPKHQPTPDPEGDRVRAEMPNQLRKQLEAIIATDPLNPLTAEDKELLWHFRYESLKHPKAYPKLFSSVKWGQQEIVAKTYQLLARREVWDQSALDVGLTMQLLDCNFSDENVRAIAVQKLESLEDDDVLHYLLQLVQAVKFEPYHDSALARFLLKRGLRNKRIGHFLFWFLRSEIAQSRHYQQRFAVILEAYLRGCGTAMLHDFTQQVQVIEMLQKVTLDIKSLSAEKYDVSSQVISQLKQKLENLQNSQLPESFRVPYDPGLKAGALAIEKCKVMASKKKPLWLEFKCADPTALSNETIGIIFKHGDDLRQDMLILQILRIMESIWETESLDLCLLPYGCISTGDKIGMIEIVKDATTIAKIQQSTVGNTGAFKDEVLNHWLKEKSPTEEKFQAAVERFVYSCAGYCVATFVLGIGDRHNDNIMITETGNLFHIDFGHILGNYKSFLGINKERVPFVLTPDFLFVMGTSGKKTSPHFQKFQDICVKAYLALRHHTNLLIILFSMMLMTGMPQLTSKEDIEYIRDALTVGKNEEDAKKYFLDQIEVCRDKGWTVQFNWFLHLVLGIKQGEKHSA
assay.name: PI 3-Kinase (human) HTRF assay, p110γ
Format: biochemical
particulars: read-out: PI3K γ IC50
experimental.readout: IC50

• CN1CCN(C(=O)c2cnc3ccc(-c4ccc5oc(N)nc5c4)cc3n2)CC1 = > 10 µM
• Nc1nc2cc(-c3ccc4ncc(C(=O)NC5CC5)n4c3)ccc2o1 = < 0.1 µM
• Nc1nc2cc(-c3ccc4ncc(N5CCOCC5)nc4n3)ccc2o1 = < 0.1 µM
• Nc1nc2cc(-c3ccc4ncc(N5CC(N6CCN(CC7CC7)CC6)C5)nc4n3)ccc2o1 = < 10 µM
• Nc1nc2cc(-c3ccc4ncc(N5CCC(O)CC5)nc4c3)ccc2o1 = < 1 µM
• CN(C)CC(=O)N1CCC(Nc2ncnc3ccc(-c4ccc5oc(N)nc5c4)cc23)CC1 = < 1 µM

FYI, the data here is from patent US9682141B2.
